Test Method Notes: total protein half-life in vivo (active degradation + dilution); higher = more stable protein
Condition Parameters: wild type E. coli NCM3722; growth: P-lim chemostat; doubling time 6 h
total protein half-life in vivo: recorded values
I only need the number, in h, no unit after it.

For orientation, consider the following solved cases.
MKKTAAIISACMLTFALSACSGSNYVMHTNDGRTIVSDGKPQTDNDTGMISYKDANGNKQQINRTDVKEMVELDQ : 4.83
MTDNNTALKKAGLKVTLPRLKILEVLQEPDNHHVSAEDLYKRLIDMGEEIGLATVYRVLNQFDDAGIVTRHNFEGGKSVFELTQQHHHDHLICLDCGKVIEFSDDSIEARQREIAAKHGIRLTNHSLYLYGHCAEGDCREDEHAHEGK [P0A9A9] : 5.27
MVINCAFIGFGKSTTRYHLPYVLNRKDSWHVAHIFRRHAKPEEQAPIYSHIHFTSDLDEVLNDPDVKLVVVCTHADSHFEYAKRALEAGKNVLVEKPFTPTLAQAKELFALAKSKGLTVTPYQNRRFDSCFLTAKKAIESGKLGEIVEVESHFDYYRPVAETKPGLPQDGAFYGLGVHTMDQIISLFGRPDHVAYDIRSLRNKANPDDTFEAQLFYGDLKAIVKTSHLVKIDYPKFIVHGKKGSFIKYGIDQQETSLKANIMPGEPGFAADDSVGVLEYVNDEGVTVREEMKPEMGDYGRVYDALYQTITHGAPNYVKESEVLTNLEILERGFEQASPSTVTLAK : 5.84
MEKLRVGIVFGGKSAEHEVSLQSAKNIVDAIDKSRFDVVLLGIDKQGQWHVSDASNYLLNADDPAHIALRPSATSLAQVPGKHEHQLIDAQNGQPLPTVDVIFPIVHGTLGEDGSLQGMLRVANLPFVGSDVLASAACMDKDVTKRLLRDAGLNIAPFITLTRANRHNISFAEVESKLGLPLFVKPANQGSSVGVSKVTSEEQYAIAVDLAFEFDHKVIVEQGIKGREIECAVLGNDNPQASTCGEIVLTSDFYAYDTKYIDEDGAKVVVPAAIAPEINDKIRAIAVQAYQTLGCAGMARVDVFLTPENEVVINEINTLPGFTNISMYPKLWQASGLGYTDLITRLIELALERHAADNALKTTM [P0A6J8] : 5.56
MQERHTEQDYRALLIADTPIIDVRAPIEFEHGAMPAAINLPLMNNDERAAVGTCYKQQGSDAALALGHKLVAGEIRQQRMDAWRAACLQNPQGILCCARGGQRSHIVQSWLHAAGIDYPLVEGGYKALRQTAIQATIELAQKPIVLIGGCTGSGKTLLVQQQPNGVDLEGLARHRGSAFGRTLQPQLSQASFENLLAAEMLKTDARQNLRLWVLEDESRMIGSNHLPECLRERMTQAAIAVVEDPFEIRLERLNEEYFLRMHHDFTHAYGDEQGWQEYCEYLHHGLSAIKRRLGLQRYNELAARLDAALTTQLTTGSTDGHLAWLVPLLEEYYDPMYRYQLEKKAEKVVFRGEWAEVAEWVKAR : 5.64

Let us move to another entry and its total protein half-life in vivo.
// fetch total protein half-life in vivo given entry MKTSVRIGAFEIDDGELHGESPGDRTLTIPCKSDPDLCMQLDAWDAETSIPALLNGEHSVLYRTRYDQQSDAWIMRLA
0.882

###

total protein half-life in vivo: recorded values
Test Method Notes: total protein half-life in vivo (active degradation + dilution); higher = more stable protein
Condition Parameters: E. coli NCM3722 delta-clpP; growth: N-lim chemostat; doubling time 6 h
I only need the number, in h, no unit after it.

MTLDLPRRFPWPTLLSVCIHGAVVAGLLYTSVHQVIELPAPAQPISVTMVTPADLEPPQAVQPPPEPVVEPEPEPEPIPEPPKEAPVVIEKPKPKPKPKPKPVKKVQEQPKRDVKPVESRPASPFENTAPARLTSSTATAATSKPVTSVASGPRALSRNQPQYPARAQALRIEGQVKVKFDVTPDGRVDNVQILSAKPANMFEREVKNAMRRWRYEPGKPGSGIVVNILFKINGTTEIQ : 3.18

// fetch total protein half-life in vivo given entry MRSKYIVIEGLEGAGKTTARNVVVETLEQLGIRDMVFTREPGGTQLAEKLRSLVLDIKSVGDEVITDKAEVLMFYAARVQLVETVIKPALANGTWVIGDRHDLSTQAYQGGGRGIDQHMLATLRDAVLGDFRPDLTLYLDVTPEVGLKRARARGELDRIEQESFDFFNRTRARYLELAAQDKSIHTIDATQPLEAVMDAIRTTVTHWVKELDA [P0A720]
4

Every entry's value here was drawn from the supplement of paper PMC11246515.
